# testedTarget: NaV1.1 (Homo sapiens (Human), UniProt P35498)
# experimentalProtocol: Sodium Influx Assay (Flux), NaV1.1;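 note: channels co-expressed with human β1 subunit and held open by modulators, cells exposed to compounds for one hour at room temperature, IC50 from percent inhibition of influx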
# Type: cell-based
# measurementContext: Trex HEK293 cells, ANG2 dye, inactivated state
pIC50: −log10 of the molar value. Where a name gives a salt, the structure may show the parent alone.
assayEndpoint: pIC50

# compound, testedTarget, reportedResult
records = [
    ("O=S(=O)(Nc1nccs1)c1ccc(NC(c2ccccc2)C2CC2)c(Cl)c1 (stereo not shown)", "NaV1.1 (Homo sapiens (Human), UniProt P35498)", 5.71),
    ("C[C@H](Nc1cc(F)c(S(=O)(=O)Nc2nccs2)cc1Cl)c1cccc(Cl)c1", "NaV1.1 (Homo sapiens (Human), UniProt P35498)", 5.89),
    ("Cc1cc(S(=O)(=O)Nc2ccncn2)c(F)cc1N[C@@H](C)c1cc(Cl)ccc1F", "NaV1.1 (Homo sapiens (Human), UniProt P35498)", 5.27),
]

A. CN(Cc1cccc(F)c1CNc1cc(F)c(S(=O)(=O)Nc2cscn2)c(F)c1)C1CCC1 [Example 179, formate]
B. C[C@H](Nc1cc(F)c(S(=O)(=O)Nc2ccon2)c(F)c1)c1cc(F)ccc1F
Field: lower pIC50 | Options: A / B To answer, give the label that identifies your chosen option.
B
(B: 4.52, A: 5.34)

I. O=S(=O)(Nc1cccc(F)n1)c1cc(Cl)c(NCc2c(F)cccc2CN2CCC2)cc1F
II. C[C@H](Nc1cc(F)c(S(=O)(=O)Nc2ncc(F)s2)cc1Cl)c1ccccc1F
III. CC1(C)CN(Cc2cccc(F)c2CNc2cc(F)c(S(=O)(=O)Nc3cscn3)c(F)c2)C1
IV. O=S(=O)(Nc1nccs1)c1cc(Cl)c(N[C@H](CN2CC(F)(F)C2)c2ccccc2)cc1F
Please give the order of these compounds when sorted by pIC50, largest value leading. Return value: ordered labels per request.
II, IV, I, III

I. CC(Cc1cccnc1)Nc1cc(F)c(S(=O)(=O)Nc2nccs2)cc1Cl (stereo not shown)
II. O=S(=O)(Nc1cscn1)c1cc(Cl)c(NC2(c3ccccc3)CC2)cc1F
III. O=S(=O)(Nc1cccc(F)n1)c1c(F)cc(NCc2ccccc2CN2CCC2)cc1F
IV. C[C@H](Nc1cc(F)c(S(=O)(=O)Nc2cscn2)cc1Cl)c1cc(CC(F)F)ccc1F
List items by pIC50 in falling order. Use the labels to give the requested order.
I, IV, III, II
(I: 5.39, IV: 5.06, III: 4.72, II: 4.52)

# credit: patent US11174268B2
